# Study target: GLS1 (Homo sapiens (Human), UniProt O94925)
# Sequence (O94925 63-669): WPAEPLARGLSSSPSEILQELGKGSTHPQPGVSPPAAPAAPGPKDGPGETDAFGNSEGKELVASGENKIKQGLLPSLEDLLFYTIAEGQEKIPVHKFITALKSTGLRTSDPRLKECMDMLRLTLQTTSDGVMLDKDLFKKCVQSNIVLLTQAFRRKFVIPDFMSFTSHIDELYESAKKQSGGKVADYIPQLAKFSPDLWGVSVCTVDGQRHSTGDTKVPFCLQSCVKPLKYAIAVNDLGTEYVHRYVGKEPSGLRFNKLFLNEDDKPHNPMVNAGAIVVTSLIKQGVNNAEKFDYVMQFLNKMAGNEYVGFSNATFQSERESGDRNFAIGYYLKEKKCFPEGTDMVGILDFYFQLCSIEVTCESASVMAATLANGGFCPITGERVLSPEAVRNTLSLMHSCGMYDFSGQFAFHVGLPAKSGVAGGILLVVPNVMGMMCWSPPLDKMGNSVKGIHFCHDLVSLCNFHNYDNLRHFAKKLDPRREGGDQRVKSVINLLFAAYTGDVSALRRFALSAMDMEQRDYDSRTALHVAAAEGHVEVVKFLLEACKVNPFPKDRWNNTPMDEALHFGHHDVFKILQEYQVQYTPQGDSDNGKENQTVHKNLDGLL
# Assay text: GLS Enzyme Potency Assay (Glutamate Oxidase/AmplexRed coupled assay)
# Type: biochemical
# Assay setup: 6His tagged GLS protein (amino acids 63-669), glutamine substrate; read-out: Assay a) enz IC50
# reported IC50; entries follow
Please give a number only; it is taken to be in nM.

[ask] What value of measured IC50 is listed for CCOC(C(=O)Nc1nnc(N[C@@H]2CCN(c3ccc(C)nn3)C2)s1)c1ccc(OC)cc1 (single isomer, unassigned) [Example 15] ?
[reply] 277

[ask] What value of measured IC50 is listed for COC(C(=O)Nc1nnc(N[C@@H]2CCN(c3ccc(F)nn3)C2)s1)c1ccc(F)cc1 (single isomer, unassigned) [Example 20] ?
[reply] 323

Kindly review the next compound as well.
[ask] What value of measured IC50 is listed for COc1ccc(C(OC)C(=O)Nc2nnc(N[C@@H]3CCN(c4ccc(F)nn4)C3)s2)cc1 (single isomer, unassigned) [Example 22] ?
[reply] 18.9
